# Tested on: human CD4 (coated on ELISA plate) (human, UniProt P01730 26-396, limits assumed)
# Protocol details: competition ELISA, plate-coated human CD4, competitor biotinylated mouse antibody at 0.2 µg/ml
Readout name: Relative Binding (IC50 of test sample divided by IC50 of mouse antibody) (fold)

modified anti-CD4 antibody VH3/VK4 (antibody, V domains shown) VH: EVQLQQSGSELKRPGASVKMSCKASGYTFANYWMHWVKQAPGQGLQWIGALYPGNVDTTYNQKFKDKAKLTAVTSASTAYMELSSLTNEDTAVYYCTRMGTTLEAPLDYWGQGTLVTVSS VL: QIVLTQSPAILSASPGEKAAMTCSARSSVSYLYWYQQKPGSSPRLLIYDTSNLASGVPSRFIGSGSGTDYSLTISSMEAEDAATYYCQQWSDYPLTFGAGTKLEIK: 1.44
